The reported numbers originate from patent US20220064276A1.

experimental_system: T1, mouse LTBP1-proTGFβ1 complex (mouse, UniProt Q8CG19 339-1712; P04202 30-390)
T1 construct: Exemplary entries; In the cell assays expressed from mouse LTBP1S and mouse proTGFb1 plasmids in LN229 cells; also called Mo LTBP1-proTGFβ1; MuLTBP1-ProTGFb1
T1 sequence (Q8CG19 339-1712 limits assumed, chain 1 of 2): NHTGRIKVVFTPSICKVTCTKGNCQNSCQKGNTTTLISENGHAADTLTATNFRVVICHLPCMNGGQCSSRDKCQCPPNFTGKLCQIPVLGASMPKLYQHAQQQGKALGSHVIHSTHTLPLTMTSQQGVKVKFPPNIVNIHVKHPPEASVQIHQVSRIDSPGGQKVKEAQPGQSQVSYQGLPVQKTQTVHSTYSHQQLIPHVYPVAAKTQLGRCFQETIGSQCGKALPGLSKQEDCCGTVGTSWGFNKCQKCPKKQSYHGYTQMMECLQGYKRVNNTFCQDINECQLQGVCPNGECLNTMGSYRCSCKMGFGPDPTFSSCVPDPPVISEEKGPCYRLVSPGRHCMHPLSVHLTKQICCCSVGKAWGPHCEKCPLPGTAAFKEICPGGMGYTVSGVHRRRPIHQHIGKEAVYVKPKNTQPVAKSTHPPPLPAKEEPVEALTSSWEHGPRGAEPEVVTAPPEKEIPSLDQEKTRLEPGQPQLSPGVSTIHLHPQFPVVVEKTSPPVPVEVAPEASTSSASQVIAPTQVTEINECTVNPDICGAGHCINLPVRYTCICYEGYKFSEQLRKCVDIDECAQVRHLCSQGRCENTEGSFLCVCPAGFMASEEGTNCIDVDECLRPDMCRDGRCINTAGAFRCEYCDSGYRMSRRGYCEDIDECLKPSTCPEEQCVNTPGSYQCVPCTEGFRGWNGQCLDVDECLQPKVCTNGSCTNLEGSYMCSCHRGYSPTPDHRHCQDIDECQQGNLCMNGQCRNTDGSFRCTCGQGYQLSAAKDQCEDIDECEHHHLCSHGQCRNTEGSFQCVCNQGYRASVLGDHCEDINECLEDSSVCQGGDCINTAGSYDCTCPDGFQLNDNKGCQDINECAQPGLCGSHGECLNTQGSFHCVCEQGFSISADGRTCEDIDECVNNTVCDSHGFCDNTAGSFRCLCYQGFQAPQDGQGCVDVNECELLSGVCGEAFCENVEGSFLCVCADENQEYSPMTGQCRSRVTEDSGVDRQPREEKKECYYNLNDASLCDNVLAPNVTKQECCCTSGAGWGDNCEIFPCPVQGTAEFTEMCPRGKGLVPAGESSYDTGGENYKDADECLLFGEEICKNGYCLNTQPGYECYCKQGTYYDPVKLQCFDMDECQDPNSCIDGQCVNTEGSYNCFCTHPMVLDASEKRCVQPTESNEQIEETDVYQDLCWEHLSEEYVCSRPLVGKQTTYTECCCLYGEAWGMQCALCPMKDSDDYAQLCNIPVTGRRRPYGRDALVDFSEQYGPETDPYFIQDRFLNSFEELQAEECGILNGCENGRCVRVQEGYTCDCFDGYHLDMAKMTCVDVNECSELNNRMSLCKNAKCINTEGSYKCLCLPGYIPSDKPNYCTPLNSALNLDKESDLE
T1 sequence (P04202 30-390 limits assumed, chain 2 of 2): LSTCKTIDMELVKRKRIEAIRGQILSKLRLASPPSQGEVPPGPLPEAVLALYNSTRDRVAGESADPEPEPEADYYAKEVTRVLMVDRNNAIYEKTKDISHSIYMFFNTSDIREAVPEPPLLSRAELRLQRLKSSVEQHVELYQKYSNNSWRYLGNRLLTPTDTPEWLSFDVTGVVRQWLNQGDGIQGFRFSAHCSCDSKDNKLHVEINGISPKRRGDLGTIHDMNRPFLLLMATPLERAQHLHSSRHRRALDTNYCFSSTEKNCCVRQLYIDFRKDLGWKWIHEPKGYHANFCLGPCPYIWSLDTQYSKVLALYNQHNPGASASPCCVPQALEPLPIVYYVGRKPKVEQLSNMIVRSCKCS
assay_text: Octet BLI, IgG captured
quantity_measured: pKd
Convention used: pKd is expressed as -log10 of the molar concentration.

binder: SR-AB43 (antibody, IgG1, V domains shown, Cycle 3, lineage SR-AB23) VH: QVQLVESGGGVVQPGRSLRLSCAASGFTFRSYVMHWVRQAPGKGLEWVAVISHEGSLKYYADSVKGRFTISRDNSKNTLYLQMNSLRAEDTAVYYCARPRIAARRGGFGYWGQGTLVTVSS VL: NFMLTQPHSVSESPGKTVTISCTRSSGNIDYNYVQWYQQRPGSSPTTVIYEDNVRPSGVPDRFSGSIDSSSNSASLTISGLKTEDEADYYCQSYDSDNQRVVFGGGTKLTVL
measured_result: 9.14

Okay, next one:
Task: Item under review: SR-AB45 (antibody, IgG1, V domains shown, Cycle 3, lineage SR-AB23) VH: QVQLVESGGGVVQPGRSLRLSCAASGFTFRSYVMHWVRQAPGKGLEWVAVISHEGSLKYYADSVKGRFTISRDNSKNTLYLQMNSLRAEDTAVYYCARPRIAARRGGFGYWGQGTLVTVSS VL: NFMLTQPHSVSESPGKTVTISCTRSSGAIDDNYVQWYQQRPGSSPTTVIYEDFQRPSGVPDRFSGSIDSSSNSASLTISGLKTEDEADYYCQSYDDDLQGVVFGGGTKLTVL . Reported pKd?
Result: 9.71
